Assay: Binding affinity to poly(dA).poly(dT) oligonucleotide DNA (unknown origin) assessed as increase in DNA thermal melting temperature at 15 uM spectrophotometry
Readout kind: ΔTm (°C)

Completed entries (count: 2):
>  <Given smiles>
N=C(N)Nc1ccc2c(c1)Cc1ccc(NC(=N)N)cc1C2

>  <Reading unit>
°C

>  <ΔTm>
4

$$$$
>  <Given smiles>
N=C(N)Nc1ccc2c(c1)Cc1ccc(NC3=NCCN3)cc1-2

>  <Reading unit>
°C

>  <ΔTm>
20

$$$$

a. c1cc2c(cc1NC1=NCCN1)Cc1ccc(NC3=NCCN3)cc1C2
b. c1cc2c(cc1NC1=NCCN1)Cc1ccc(NC3=NCCN3)cc1-2
[ask] a or b : whose ΔTm is greater? Answer format: the label of the selected item.
[reply] b
(b: 31 °C, a: 12 °C)

====

System: Salmonidae
Test: Binding affinity to salmon sperm DNA assessed as increase in DNA thermal melting temperature at 15 uM spectrophotometry
Readout kind: ΔTm (°C)

>  <Given smiles>
N=C(N)Nc1ccc2c(c1)Cc1ccc(NC3=NCCN3)cc1-2

>  <Readout kind>
ΔTm

>  <Measured value>
4

$$$$

a. N=C(N)Nc1ccc2c(c1)Cc1ccc(NC(=N)N)cc1C2
b. c1cc2c(cc1NC1=NCCN1)Cc1ccc(NC3=NCCN3)cc1-2
c. c1cc2c(cc1NC1=NCCN1)Cc1ccc(NC3=NCCN3)cc1C2
[ask] Order the records so the highest ΔTm appears first and the lowest last. Labels, requested order.
[reply] c, b, a

====

Assay: Binding affinity to poly(dA.dT)2 oligonucleotide DNA (unknown origin) assessed as increase in DNA thermal melting temperature at 15 uM spectrophotometry
Readout kind: ΔTm (°C)

Completed entries (count: 2):
>  <Given smiles>
N=C(N)Nc1ccc2c(c1)Cc1ccc(NC(=N)N)cc1C2

>  <ΔTm, °C>
-3

$$$$
>  <Given smiles>
N=C(N)Nc1ccc2c(c1)Cc1ccc(NC3=NCCN3)cc1-2

>  <ΔTm, °C>
22

$$$$

P. c1cc2c(cc1NC1=NCCN1)Cc1ccc(NC3=NCCN3)cc1-2
Q. c1cc2c(cc1NC1=NCCN1)Cc1ccc(NC3=NCCN3)cc1C2
[ask] Could you determine which record has the numerically smaller ΔTm? Candidates: P and Q Answer format: the label of the selected item.
[reply] Q
(Q: 1 °C, P: 26 °C)

====

Test: Binding affinity to AATT DNA hairpin sequence (unknown origin) by SPR assay
Readout kind: K (×10⁵ /M)

P. c1cc2c(cc1NC1=NCCN1)Cc1ccc(NC3=NCCN3)cc1-2
Q. Nc1ccc2cc3ccc(N)cc3nc2c1
R. c1cc(C2CCN(c3ccc(NC4=NCCN4)cc3)CC2)ccc1NC1=NCCN1
S. c1cc(NC2=NCCN2)cc(Sc2ccc(NC3=NCCN3)cc2)c1
T. c1cc2c(cc1NC1=NCCN1)Cc1ccc(NC3=NCCN3)cc1C2
[ask] Kindly sort the 5 compounds above from the smallest to the largest K. Labels, requested order.
[reply] R, S, T, Q, P
(R: 1.1 ×10⁵ /M, S: 1.6 ×10⁵ /M, T: 2.7 ×10⁵ /M, Q: 5.7 ×10⁵ /M, P: 15 ×10⁵ /M)

====

Assay: Binding affinity to (CG)4 DNA hairpin sequence (unknown origin) by SPR assay
Readout kind: K (×10⁵ /M)

>  <Given smiles>
c1cc2c(cc1NC1=NCCN1)Cc1ccc(NC3=NCCN3)cc1-2

>  <Readout kind>
K

>  <Measured value>
6.5

$$$$
>  <Given smiles>
c1cc2c(cc1NC1=NCCN1)Cc1ccc(NC3=NCCN3)cc1C2

>  <Readout kind>
K

>  <Measured value>
5.5

$$$$

1. c1cc(C2CCN(c3ccc(NC4=NCCN4)cc3)CC2)ccc1NC1=NCCN1
2. Nc1ccc2cc3ccc(N)cc3nc2c1
3. c1cc(NC2=NCCN2)cc(Sc2ccc(NC3=NCCN3)cc2)c1
[ask] Order by K, ascending. Labels, requested order.
[reply] 1, 3, 2

These data points were gathered from ChEMBL document CHEMBL3351880.
